Recorded values, source paper PMC3513622.

Reported CC50 is given for each of the following molecules.
# Procedure Summary: in vitro
# Protocol Conditions: human

Smiles Text: O=c1cc(N2CCOCC2)oc2c(-c3ccccc3)cccc12
Experimental Readout: CC50
Experimental Value: 6.16 µM

QUERY: Supply recorded CC50 for `CN[C@@H]1C[C@H]2O[C@@](C)([C@@H]1OC)n1c3ccccc3c3c4c(c5c6ccccc6n2c5c31)C(=O)NC4` here.
RESULT: 0.004 µM

* * *

# System: EBV early protein EA-D
# Protocol Conditions: 1μM PKI, 24 hours after induction, Fig. 2B

Compound: O=c1cc(N2CCOCC2)oc2c(-c3ccccc3)cccc12 [LY 294002]
EA-D expression (immunoblot): intermediate

Compound: Cc1ccc(S(=O)(=O)/C=C/C#N)cc1 [BAY 11-7082]
EA-D expression (immunoblot): intermediate
